# Tested on: MS2 coat protein
# procedureDetails: apparent KD of MS2 coat protein; designed switch direction (-1 OFF switch, 1 ON switch): -1; higher = weaker reporter binding
# runParameters: input ligand: FMN 200 uM
reportedEndpoint: apparent KD of MS2 coat protein
Put down the number, then write its unit next to it.

Previously resolved entries follow.
>>> val("CAGCUGUCAGGAUAUCGUGCAUACAACGAAAGUUCUAUGUGCGAGAAGGGACAUGAGGAUCACCCAUGUUAACG [Omei Ex4 A25] (Eterna round: R97, puzzle: Exclusion 4)")
"58 nM"
>>> val("UACAUGAGGAUCACCCAUGUUUUGUCGUGUAUGGUACCCGUCUAGGAUAUCGUGUUAUUGGACCGCGAGAAGGAGAGUAUCAAU [Excl-NG3-LRO03] (Eterna round: R96, puzzle: Exclusion NG 3)")
"26.4 nM"
>>> val("AGGUCCUUCUGGAGACAUGAGGAUCACCCAUGUCGAGUCAGCGAGGAUAUCGGUUAAUAAUGUGAUGAGAAGGCGCAGACCGAU [Ex NG3 #53] (Eterna round: R96, puzzle: Exclusion NG 3)")
"15.5 nM"
>>> val("GGAUCGAGUGUGAGGAUAUGCUGGUCCUAAGAUCAGCAGAAGGCACAUGAGGAUCACCCAUGUGAAAACGGUCC [Mat - Exclusion 4 - JL Mod - D71] (Eterna round: R96, puzzle: Brourd's mod of Exclusion 4)")
"183 nM"

Then there is this sequence:
Name the reported apparent KD of MS2 coat protein value associated with the sequence GGGAACCGAGGAUAUCAGUACACGCACAUGAGGAUCACCCAUGUGCUCCUCGGUGCUGUCUGAGAAGGCGGUGAGA [Raonxe] (Eterna round: R97, puzzle: Exclusion 5)
26.9 nM

---

apparent KD of K4 kissing-loop reporter: recorded values
# Test system: K4 kissing-loop RNA reporter;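 note: bound reporter read as fluorescence of individual clusters on recovered sequencing chips by microscopy, with normalized cluster intensities fitted with a binding model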
# procedureDetails: apparent KD of K4 kissing-loop reporter; higher = weaker reporter binding
# runParameters: Eterna round: R107; input ligand: theophylline 20 uM
Reply with just the number (in nM).

Previously resolved entries follow.
>>> val("AAACGUCGGAAGUGAUGUUGAUGACGUAGUAAGGAUAUUGGACGCGCAAGAAGGUACUGGCAAACUAAGGACAUCCUGGAUAUUC [theeternabot_exclusion_KL_FMN_A_47]")
243
>>> val("AUACACGUUGCGGCCGCCACUUCGAUUAGUGAUGUUAGGUGUAAGCAGGCGCUGCAUUAAUGUGAAAGGACCGGGCAGAGUAAGC [theeternabot_exclusion_KL_Trp_B_39]")
206
>>> val("ACGCUUGAAUAACAAGCGAAAUAAAAUUCGCGAGGACCGGUACGGCCGCCACUCGCUAACUGCGAGUGAUGUUCGAUAAUAAAAU [Mat - Mod of OpenEnded 3 - D16]")
208

Name the reported apparent KD of K4 kissing-loop reporter value associated with the sequence AAGAAUAAUCUUGCAGUGAUGUUGCAAGAUACCAGCAUCGAAAGAUGCCCUUGGCAGCUUGAAACUGCAAGAAUCAAGCUGAAUA [Design1]
145

---

# Test system: MS2 coat protein
# procedureDetails: apparent KD of MS2 coat protein; higher = weaker reporter binding
# runParameters: Eterna round: R107; input ligand: theophylline 2 mM
apparent KD of MS2 coat protein: recorded values
Reply with just the number (in µM).

>>> val("AACAUGAGGAUCACCCAUGUCCUCGUGUACCGAGGACCGGUACGGCCGCCACUCGGUUCUCGCGAGGAUGGUCAAAGACUAUCCA [Omei Trp A SS B v4]")
1.01

Value wanted: apparent KD of MS2 coat protein (MS2 coat protein) of entry AACAACAAGGGAAGGAGCGCGAAUAAUAAACAUGAGGAUCACCCAUGUAUCAUGGGCUUAACGCAGGUAGGUCGCCCACAAACAA [Exclusion Arginine B GF1]
0.0494

Value wanted: apparent KD of MS2 coat protein (MS2 coat protein) of entry AAUGUGAAGGCGGCCGCCACUGAUAAUAGACAUGAGGAUCACCCAUGUAUAAAUCCUCAAUAAGACAGGACCGGGCCAACUACGU [Exclusion Tryptophan B GF 1]
0.136

Value wanted: apparent KD of MS2 coat protein (MS2 coat protein) of entry ACAUGAGGAUCACCCAUGUAUGACUAUCCUCGAGGACCGGUACGGCCGCCACUCGAAGGAGUGGCUCGCGAGUGCGCACUUGCGA [5' end]
0.0118

Value wanted: apparent KD of MS2 coat protein (MS2 coat protein) of entry UUAUGCAGGUCGGCCGCCACUACACACAUGAGGAUCACCCAUGUAGUUACUGGGUGAAGUGGCAGUAGGACCGGGACCCGCACAC [Brourdmod22]
0.715

Value wanted: apparent KD of MS2 coat protein (MS2 coat protein) of entry CAGCACAUGAGGAUCACCCAUGUGAGGGAUACCAGCUCAGGCGUGGGCCCUUGGCAGCUCUGUGGCUGACGAAAGUCAGCCUCUG [#18 SameState-TheophyllineA]
0.0154
